Values of AC50 reported for Vasopressin V2 receptor (Homo sapiens) appear below.

Examples from the recorded data:
* CN(C)CCC=C1c2ccccc2CCc2ccccc21 | > 30 µM
* O=C(O)CCCC[C@@H]1SC[C@@H]2NC(=O)N[C@@H]21 | > 10 µM
* CCC(NC(C)C)C(O)c1ccc(O)c(O)c1 (centres undefined) | > 30 µM
* CS(=O)(=O)Nc1ccc([N+](=O)[O-])cc1Oc1ccccc1 [NIMESULIDE] | 26 µM
* C=CC1=C(C(=O)O)N2C(=O)[C@@H](NC(=O)/C(=N\O)c3csc(N)n3)[C@H]2SC1 | > 30 µM
* CN(C)CCC(O)(c1ccccc1)c1ccccc1Cl (centres undefined) | > 10 µM
* CC(C(=O)O)c1ccc(C(=O)c2ccccc2)s1 (centres undefined) | > 10 µM
* COC(=O)CCc1ccc(OCC(O)CNC(C)C)cc1 (centres undefined) | > 30 µM
* CCN(CC)CCCN(c1ccccc1)C1Cc2ccccc2C1 | > 30 µM
* CCN(CCO)CCCC(C)Nc1ccnc2cc(Cl)ccc12 (centres undefined) [HYDROXYCHLOROQUINE] | > 10 µM

Please look at this compound and report its AC50: CCN(CC)Cc1nccn1-c1ccc([N+](=O)[O-])cc1C(=O)c1ccccc1Cl
> 30 µM

Please look at this compound and report its AC50: O=c1[nH]cc(F)c(=O)[nH]1
> 30 µM

Please look at this compound and report its AC50: C[C@]12CCC(=O)C=C1CC[C@H]1[C@@H]3CC[C@](O)(C(=O)CO)[C@@]3(C)C[C@H](O)[C@@]12F
> 30 µM

Please look at this compound and report its AC50: COc1nc(C)nc(Cl)c1N=C1NCCN1
> 30 µM
